Measured IC50 of individual entries
Tested on: LNCaP
assayProtocol: Cytotoxicity against human LNCAP cells after 48 hrs by MTS assay
Assay type: functional, cell-based
Write the value in nM as a bare number.

Query: Query (compound): c1cc2ccc(-c3ccc4[nH]ccc4c3)cc2c(-c2ccc3[nH]ccc3c2)n1 ; field requested: IC50
Reply: 98

Query: Query (compound): COc1cc(-c2nccc3ccc(-c4ccc5[nH]ccc5c4)cc23)cc(OC)c1OC ; field requested: IC50
Reply: 81

Here is the next item to consider.
Query: Query (compound): Fc1ccc(-c2nccc3ccc(-c4ccc5[nH]ccc5c4)cc23)cc1 ; field requested: IC50
Reply: 38
